test system: A. baumannii clinical isolate NY B; test: Antibiotic susceptibility profile; type: cell-based, Acinetobacter baumannii; set-up: key: Resistance; Intermediate; Susceptible
measured.quantity: Antibiotic susceptibility

| compound | Antibiotic susceptibility |
| --- | --- |
| NC[C@H]1O[C@H](O[C@H]2[C@H](O)[C@@H](O[C@H]3O[C@H](CO)[C@@H](O)[C@H](N)[C@H]3O)[C@H](N)C[C@@H]2N)[C@H](N)C[C@@H]1O [TOB, Tobramycin] | R |
| C[C@@H](O)[C@H]1C(=O)N2C(C(=O)O)=C(S[C@@H]3CN[C@H](C(=O)N(C)C)C3)[C@H](C)[C@H]12 [MEM, Meropenem] | R |
| CO/N=C(\C(=O)N[C@@H]1C(=O)N2C(C(=O)O)=C(CSc3nc(=O)c(=O)[nH]n3C)CS[C@H]12)c1csc(N)n1 [CRO, Ceftriaxone] | R |
| CN(C)c1ccc(O)c2c1C[C@H]1C[C@H]3[C@H](N(C)C)C(O)=C(C(N)=O)C(=O)[C@@]3(O)C(O)=C1C2=O [MIN, Minocycline] | R |
| C[C@H]1COc2c(N3CCN(C)CC3)c(F)cc3c(=O)c(C(=O)O)cn1c23 [LVX, Levofloxacin] | R |
| CC(C)(O/N=C(\C(=O)N[C@@H]1C(=O)N2C(C(=O)[O-])=C(C[n+]3ccccc3)CS[C@H]12)c1csc(N)n1)C(=O)O [CAZ, Ceftazidime] | R |

The compound listed as CO/N=C(\C(=O)N[C@@H]1C(=O)N2C(C(=O)O)=C(COC(C)=O)CS[C@H]12)c1csc(N)n1 [CTX, Cefotaxime] shows Antibiotic susceptibility equal to R

Lookup result for COc1c(N2CCNC(C)C2)c(F)cc2c(=O)c(C(=O)O)cn(C3CC3)c12 (centres unmarked) [GAT, Gatifloxacin] ; measured Antibiotic susceptibility: R

Reported Antibiotic susceptibility for CN(C)[C@@H]1C(O)=C(C(N)=O)C(=O)[C@@]2(O)C(O)=C3C(=O)c4c(O)cccc4[C@@](C)(O)[C@H]3C[C@@H]12 [TET, Tetracycline] was R

For reference, reported Antibiotic susceptibility for CO/N=C(\C(=O)N[C@@H]1C(=O)N2C(C(=O)[O-])=C(C[N+]3(C)CCCC3)CS[C@H]12)c1csc(N)n1 [FEP, Cefepime] stands at R

According to the records, this compound C[C@H]1c2cccc(O)c2C(=O)C2=C(O)[C@]3(O)C(=O)C(C(N)=O)=C(O)[C@@H](N(C)C)[C@@H]3[C@@H](O)[C@@H]21 [DOX, Doxycycline] displays Antibiotic susceptibility of R
